Ref: BindingDB's records for doi:10.1016/S0960-894X(96)00247-8

# tested_system: Glutamate-cysteine ligase gshA (Escherichia coli) (UniProt P0A6W9)
# Sequence (P0A6W9 whole entry, looked up): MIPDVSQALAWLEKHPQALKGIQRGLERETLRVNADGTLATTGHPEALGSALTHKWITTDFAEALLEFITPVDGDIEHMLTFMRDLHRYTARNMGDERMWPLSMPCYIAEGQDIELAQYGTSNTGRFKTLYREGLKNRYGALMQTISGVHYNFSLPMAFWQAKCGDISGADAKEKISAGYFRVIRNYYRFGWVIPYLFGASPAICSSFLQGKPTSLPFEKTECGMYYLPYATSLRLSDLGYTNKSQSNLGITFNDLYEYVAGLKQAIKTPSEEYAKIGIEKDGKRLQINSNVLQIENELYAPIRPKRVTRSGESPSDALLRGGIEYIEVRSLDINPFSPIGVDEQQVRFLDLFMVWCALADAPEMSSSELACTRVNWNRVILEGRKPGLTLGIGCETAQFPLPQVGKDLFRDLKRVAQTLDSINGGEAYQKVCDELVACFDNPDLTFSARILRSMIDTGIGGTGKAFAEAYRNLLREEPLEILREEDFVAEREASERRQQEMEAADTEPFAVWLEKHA
# method_description: Tested for inhibition of Escherichia coli gamma-glutamylcysteine synthetase at a concentration of 5.7 uM
measure_name: Ki (µM)
API: value field is a number in µM; no unit string.

stdin: # input compound: CCC(CP(=O)(O)CC[C@H](N)C(=O)O)C(=O)O (stereo partly specified) ; wanted: its Ki
stdout: 4.95

###

# tested_system: UniProtKB P0A6W9
# method_description: Tested for inhibition of Escherichia coli gamma-glutamylcysteine synthetase at a concentration of 5.1 uM
measure_name: pKi
To interpret pKi, take it as minus log10 of a concentration measured in moles per litre.

stdin: Form field: reported pKi of CCCCS(=N)(=O)CCC(=N)C(=O)O (stereo unspecified)
stdout: 4.31
